Hello, the source for this data is PubChem BioAssay (NCI), in case you need it.

# TGI per entry
- System: SK-MEL-5 melanoma
- assay-remarks: NCI tumour cell line growth inhibition, 48 h

Worked cases, TGI given:
Nc1nc(NCCO)c(N=O)c(=O)[nH]1: > 100 µM
Cc1oc2c(C)c3oc(=O)cc(C)c3cc2c1CNC(=O)[C@@H]1OCCOCCOCCOCCOCCOC1C(=O)O (stereo partly drawn): > 100 µM

Request: Entry under review: Clc1ccc(/C=C/c2cc(N3CCOCC3)c3cc(Cl)c(Cl)cc3n2)cc1 . Reported TGI?
Result: > 100 µM

----------
Below, each entry is listed with its recorded GI50.
- Test system: MCF7 breast
- assay-remarks: NCI tumour cell line growth inhibition, 48 h

N#Cc1cccc(OCc2nc(N)nc(N)c2-c2ccc(Cl)c(Cl)c2)c1: 3.09 µM
O=C1C2C(C(=O)[N]1[Hg][c]1cccs1)C1(Cl)C(Cl)=C(Cl)C2(Cl)C1(Cl)Cl (stereo not given): 0.386 µM
c1ccc(C2CC(c3cccc(Nc4ccncc4)c3)=NN2c2ccccc2)cc1 (stereo not given): 1.61 µM
Nc1ccccc1-c1ccc([N+](=O)[O-])cc1: 35 µM

Request: # input molecule: COc1cc(-c2nc3sccn3c2-c2ccnc(NCCNS(=O)(=O)c3ccc(Cl)cc3)n2)ccc1F ; wanted: its GI50
Result: 3.24 µM

----------
- Test system: 786-0 renal
- assay-remarks: NCI tumour cell line growth inhibition, 48 h
parameter-measured: TGI

O=c1c2c3c(sc2n2c(-c4cc(-c5ccccc5)no4)nnc2n1Cc1ccccc1)CCCC3: 98.9 µM
CCOC(O)(NC(=O)C(C(F)(F)F)C(F)(F)F)C(F)(F)F (stereo not given): > 100 µM
Cc1cc(NS(=O)(=O)c2ccc(NC(=O)c3ccc4[nH]c5ccccc5c(=O)c4c3)cc2)no1: > 100 µM

Request: Find the recorded TGI belonging to COc1cc(C(=O)N2N=C(c3ccc(S(C)(=O)=O)cc3)CC2c2ccco2)cc(OC)c1OC (stereo not given) and report it.
Result: > 100 µM

Request: What measured TGI goes with N#Cc1n[nH]n(C2CCCCC2)c1=O ?
Result: > 100 µM

Request: Item N/C(=N\S(=O)(=O)c1cccc2nsnc12)Nc1ccc(Cl)cc1 has what recorded TGI?
Result: > 100 µM

Request: What TGI value was documented for this molecule, N#C/C(=N\Nc1ccc(Cl)cc1)C(=O)Nc1cc(-c2ccccc2)nn1-c1ccccc1 ?
Result: > 100 µM

Request: Entry CN(CCCCCl)P(=O)(OCc1ccc([N+](=O)[O-])o1)OCC1OC(n2ccc(N)nc2=O)C(F)(F)C1O (stereo not given) : reported TGI = ?
Result: 1.5 µM

----------
- Test system: MDA-MB-435
- assay-remarks: NCI tumour cell line growth inhibition, 48 h
parameter-measured: TGI

Examples from the recorded data:
CN(c1cc2ncc(=O)[nH]c2cc1NC(N)=NCc1ccc(Cl)cc1)C1CCCCC1: 12.8 µM
COc1ccc(/C=C2\C(=O)N(C)C(=O)c3cc(OC)c(OC)cc32)cc1OC: > 100 µM
CN(C)c1nc2oc(-c3ccccc3)c(-c3ccccc3)c2c2nncn12: > 100 µM
CN(CCCCCl)P(=O)(OCc1ccc([N+](=O)[O-])o1)OCC1OC(n2ccc(N)nc2=O)C(F)(F)C1O (centres undefined): > 50.9 µM
Cc1ncc([N+](=O)[O-])n1CCN(C)C(=O)CCCn1ccnc1[N+](=O)[O-]: > 100 µM

Request: Short answer please: TGI, MDA-MB-435, entry Cc1cccc2cc3c(ccc4ccccc43)c[n+]12
Result: > 100 µM

Request: Form field: TGI recorded for COc1cc2cc(C(=O)CCC(=O)O)sc2cc1OC with MDA-MB-435 (enter value)
Result: > 100 µM

Request: Report TGI for CCOC(=O)/C(=N\OC)C(O)C(F)(F)F (centres undefined) tested on MDA-MB-435.
Result: > 100 µM

Request: Write down the reported TGI of N#CC(c1nc2ccccc2s1)c1ncnc(Cl)c1[N+](=O)[O-] (centres undefined) , test system: MDA-MB-435.
Result: 83.2 µM

Request: Report TGI for CC(=O)Nc1ccc(N=C2C(c3ccccc3)=C(SC3=C(c4ccccc4)C(=Nc4ccc(NC(C)=O)cc4)c4ccccc43)c3ccccc32)cc1 tested on MDA-MB-435.
Result: > 100 µM

Request: Item: N#CC1Cc2cc3c(cc21)OCO3 (centres undefined) Test system: MDA-MB-435 Read-out: TGI Value: ?
Result: > 100 µM

Request: Find TGI (MDA-MB-435) for the entry S=c1nc(Cc2ccc(Cl)cc2)[nH][nH]1
Result: > 100 µM

Request: GET /values?readout=TGI&system=MDA-MB-435&item= CO/C=C(/C(=O)OC)c1ccccc1[C@@H]1CC1c1cccc(F)c1 (some centres undefined)
Result: 44 µM

Request: TGI, test system MDA-MB-435, entry O=S(=O)(N/N=C1\CC2CCC1C2)c1ccccc1 (centres undefined)
Result: > 100 µM

Request: Reported TGI for MDA-MB-435, given Cn1cc(C2=C(c3cn(CCO)c4ccccc34)C(=O)NC2=O)c2ccccc21 ?
Result: > 25 µM

Request: Query TGI on MDA-MB-435 for CN(Cc1ccc(Cl)cc1)c1ccc(CO)c(Cl)c1
Result: 27.9 µM

Request: Form field - read-out: TGI; system: MDA-MB-435; submitted item: COc1cc(-n2cc(-c3ccc(F)cc3)nc2SCc2ccccc2)cc(OC)c1OC
Result: > 100 µM

Request: MDA-MB-435 / TGI / COc1cc2c3c(n(CCCN(CCN)CCCn4c5c(c6cc(OC)c(OC)cc6c4=O)C(=O)c4cc6c(cc4-5)OCO6)c(=O)c2cc1OC)-c1cc2c(cc1C3=O)OCO2 : value?
Result: 23.2 µM

Request: Field: TGI (MDA-MB-435). Entry: CC(=O)N1N=C(c2ccc(Nc3nc(Nc4ccc(Cl)cc4)nc(Nc4ccc(Cl)cc4)n3)cc2)CC1c1ccc([N+](=O)[O-])cc1 (centres undefined)
Result: 36 µM
